quantity-measured: melting point

Consider the reported melting point for these compounds:
>>> result("CC(C)C(NC(=O)OCc1ccccc1)C(=O)NC(Cc1ccccc1)C(O)C(Cc1ccccc1)NC(=O)C(NC(=O)N1CCN(C)CC1)C(C)C (centres undefined)")
"175 to 176 °C"
>>> result("O=C1N=Nc2ccccc21")
"232 to 233 °C"
>>> result("CC(C)(C)c1ccc(-c2ccc(F)cc2)n1CC[C@H]1C[C@H](O)CC(=O)O1 (relative stereo)")
"177 to 178 °C"

API: the following record is the query input.
Challenge: GET /values?readout=melting point&item= C[C@@H](n1cnc2cc(Oc3ccc(Cl)cc3)ccc2c1=O)[C@](O)(Cn1cncn1)c1ccc(F)cc1F
Response given: 198 to 199 °C

These data points were gathered from a melting point compilation (Tetko et al.; mined from patent text by program, amines drawn as free bases though some values may be those of a salt).
